Cited source: patent US20210324028A1

Target: T1, human IL-2Rβ (human, UniProt P14784 27-240, limits assumed)
T1 construct: also called hIL-2Rβ; IL-2 receptor beta
T1 sequence (looked up): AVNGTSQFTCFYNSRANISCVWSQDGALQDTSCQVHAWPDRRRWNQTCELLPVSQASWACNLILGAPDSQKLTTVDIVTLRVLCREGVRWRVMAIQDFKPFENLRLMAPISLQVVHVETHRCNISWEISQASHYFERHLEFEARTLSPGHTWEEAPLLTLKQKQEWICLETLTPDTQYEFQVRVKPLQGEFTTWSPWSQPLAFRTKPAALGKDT
Experiment: SPR, steady state
pKd: −log10 of the molar value.
For each record, write down the corresponding pKd.

Below, each entry is followed by its recorded pKd result.
Binder	pKd
hIL-15 V49R/K10L (ligand) NWVNVISDLLKIEDLIQSMHIDATLYTESDVHPSCKVTAMKCFLLELQRISLESGDASIHDTVENLIILANNSLSSNGNVTESGCKECEELEEKNIKEFLQSFVHIVQMFINTGGGGSGHHHHHHHHGGGLNDIFEAQKIEWHE	6.46
hIL-15 V49R/V31S (ligand) NWVNVISDLKKIEDLIQSMHIDATLYTESDSHPSCKVTAMKCFLLELQRISLESGDASIHDTVENLIILANNSLSSNGNVTESGCKECEELEEKNIKEFLQSFVHIVQMFINTGGGGSGHHHHHHHHGGGLNDIFEAQKIEWHE	< 6.30
hIL-15 V49R/M109K (ligand) NWVNVISDLKKIEDLIQSMHIDATLYTESDVHPSCKVTAMKCFLLELQRISLESGDASIHDTVENLIILANNSLSSNGNVTESGCKECEELEEKNIKEFLQSFVHIVQKFINTGGGGSGHHHHHHHHGGGLNDIFEAQKIEWHE	< 6.30

Shift focus to the following entry.
QUERY: Hello, please tell me recorded pKd for this one: hIL-15 V49R/K11D (ligand) NWVNVISDLKDIEDLIQSMHIDATLYTESDVHPSCKVTAMKCFLLELQRISLESGDASIHDTVENLIILANNSLSSNGNVTESGCKECEELEEKNIKEFLQSFVHIVQMFINTGGGGSGHHHHHHHHGGGLNDIFEAQKIEWHE
RESULT: < 6.30
